Values from ChEMBL document CHEMBL4371013

Molecular target: Metabotropic glutamate receptor 6 (Homo sapiens)
Sequence (O15303 whole entry): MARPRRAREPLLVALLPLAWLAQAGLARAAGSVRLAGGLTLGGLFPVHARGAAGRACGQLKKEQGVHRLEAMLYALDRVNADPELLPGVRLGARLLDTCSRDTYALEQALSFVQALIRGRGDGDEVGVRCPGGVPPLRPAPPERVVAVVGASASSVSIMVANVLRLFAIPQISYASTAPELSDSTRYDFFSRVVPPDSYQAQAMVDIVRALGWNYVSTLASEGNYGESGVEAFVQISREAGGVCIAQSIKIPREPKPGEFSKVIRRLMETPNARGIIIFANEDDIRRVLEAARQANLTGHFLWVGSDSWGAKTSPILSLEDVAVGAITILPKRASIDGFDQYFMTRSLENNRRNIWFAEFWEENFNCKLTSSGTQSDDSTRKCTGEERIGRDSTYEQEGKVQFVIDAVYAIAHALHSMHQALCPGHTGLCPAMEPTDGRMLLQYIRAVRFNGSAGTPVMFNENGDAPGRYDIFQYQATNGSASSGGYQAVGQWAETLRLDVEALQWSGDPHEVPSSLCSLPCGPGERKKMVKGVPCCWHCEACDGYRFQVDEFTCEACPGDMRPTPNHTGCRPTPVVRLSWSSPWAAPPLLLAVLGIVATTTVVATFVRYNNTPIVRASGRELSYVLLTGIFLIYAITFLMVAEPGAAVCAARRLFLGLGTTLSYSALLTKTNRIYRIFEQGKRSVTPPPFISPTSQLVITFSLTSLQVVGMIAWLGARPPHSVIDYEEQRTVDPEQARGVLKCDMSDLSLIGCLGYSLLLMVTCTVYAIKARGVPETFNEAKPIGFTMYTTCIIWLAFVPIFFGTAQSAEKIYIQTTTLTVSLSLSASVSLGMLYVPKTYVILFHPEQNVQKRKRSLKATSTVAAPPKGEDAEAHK
Assay: Activation of human metabotropic glutamate 6 receptor expressed in golden hamster AV12-664 cells
experimental endpoint: pEC50
// pEC50 here means minus log10 of the molar concentration (mol/L)

# input Output measured pEC50 for this item: N[C@@H](CCP(=O)(O)O)C(=O)O
# output 7.26

* * *

Biological target: Metabotropic glutamate receptor 4 (Homo sapiens, UniProt Q14833)
Sequence (Q14833 whole entry): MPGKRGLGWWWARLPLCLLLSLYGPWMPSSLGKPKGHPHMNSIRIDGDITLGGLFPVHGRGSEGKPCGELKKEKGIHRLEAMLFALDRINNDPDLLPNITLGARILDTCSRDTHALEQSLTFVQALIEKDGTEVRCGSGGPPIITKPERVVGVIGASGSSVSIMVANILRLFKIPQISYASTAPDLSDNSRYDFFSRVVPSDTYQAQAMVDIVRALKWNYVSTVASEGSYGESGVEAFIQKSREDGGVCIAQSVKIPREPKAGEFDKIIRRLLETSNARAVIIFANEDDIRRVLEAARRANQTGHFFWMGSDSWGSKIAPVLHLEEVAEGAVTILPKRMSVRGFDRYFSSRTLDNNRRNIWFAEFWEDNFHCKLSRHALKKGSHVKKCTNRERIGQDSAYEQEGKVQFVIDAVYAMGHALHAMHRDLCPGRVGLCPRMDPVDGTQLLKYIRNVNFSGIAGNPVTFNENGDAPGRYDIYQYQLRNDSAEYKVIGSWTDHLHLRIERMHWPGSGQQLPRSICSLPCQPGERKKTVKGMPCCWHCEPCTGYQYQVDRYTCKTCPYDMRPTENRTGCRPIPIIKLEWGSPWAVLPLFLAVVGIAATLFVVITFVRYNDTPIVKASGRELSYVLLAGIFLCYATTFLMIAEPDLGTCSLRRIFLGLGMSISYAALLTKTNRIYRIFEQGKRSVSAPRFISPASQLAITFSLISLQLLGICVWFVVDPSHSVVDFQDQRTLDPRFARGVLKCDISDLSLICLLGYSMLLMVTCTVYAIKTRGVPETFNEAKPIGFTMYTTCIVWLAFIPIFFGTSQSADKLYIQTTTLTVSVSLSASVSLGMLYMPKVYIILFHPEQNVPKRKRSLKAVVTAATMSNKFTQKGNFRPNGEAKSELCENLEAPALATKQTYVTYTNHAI
Assay: Activation of human metabotropic glutamate 4 receptor expressed in golden hamster AV12-664 cells
experimental endpoint: EC50

# input Output measured EC50 for this item: N[C@@H](CCP(=O)(O)O)C(=O)O
# output 310 nM
